Values from paper PMC4047093

# TARGET OR TEST SYSTEM: UniProtKB Q2FUW1
# Sequence (Q2FUW1 245-491): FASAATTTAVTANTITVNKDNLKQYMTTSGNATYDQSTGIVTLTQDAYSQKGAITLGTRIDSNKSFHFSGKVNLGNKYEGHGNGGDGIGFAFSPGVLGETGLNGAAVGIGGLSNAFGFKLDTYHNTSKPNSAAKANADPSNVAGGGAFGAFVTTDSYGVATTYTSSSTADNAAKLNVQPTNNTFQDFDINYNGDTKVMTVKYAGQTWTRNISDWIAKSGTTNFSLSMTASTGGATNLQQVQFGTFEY
OBSERVABLE: pKd
In plain terms, pKd is the concentration in mol/L turned into minus its base-10 logarithm.

Param readout = pKd; param system = UniProtKB Q2FUW1; param query = CC(=O)N[C@H]1[C@H]([C@H](O)[C@H](O)CO)OC(O)(C(=O)O)C[C@@H]1O (stereo partly shown) ; response: value
3.27
